# assay name: Cellular Toxicity (caspase-3) H-4-II-E (AID 663);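 note: cells exposed to compound for 16 hr before readout; 0% = DMSO basal and 100% = 100 µM tamoxifen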
# condition info: H-4-II-E rat hepatoma; caspase-3 activation; series mostly up to 92.2 µM
# Description: NIH Chemical Genomics Center [NCGC] NIH Molecular Libraries Screening Centers Network [MLSCN] National Institutes of Environmental Health Sciences [NIEHS] National Toxicology Program [NTP] We have developed a 1536-well cell-based assay for quantitative high throughput screening (qHTS) against a number of cell lines to determine in vitro caspase 3/7 of small molecules. This particular assay uses the H-4-II-E cell line which is derived from rat hepatoma. […] 8. Detection; Luminescence; Viewlux plate reader […]
Records with an inconclusive call do not appear. Calls of active or inactive are those of the source. Calls come from the whole dose curve; as a rule, active = well fitted activation curve with a large enough effect; inconclusive = small, poorly fitted or top-dose-only effect; inactive = flat fitted curve, though single readings scatter.

mol: CCOc1ccccc1C(N)=O
outcome: inactive

mol: C=C[C@H]1CN2CC[C@H]1C[C@@H]2[C@@H](O)c1ccnc2ccc(OC)cc12
outcome: inactive

mol: NC(=O)c1ccccc1O
outcome: inactive

* * *

# System: CP269
# assay name: qHTS profiling for inhibitors of Plasmodium falciparum proliferation (AID 504749); note: nearly all actives have a fitted effect of over 60% in size
# condition info: P. falciparum in erythrocytes, SYBR Green DNA, 72 h; series mostly up to 28.7 µM
Inconclusive results are not listed. Activity calls are given as the source filed them. Calls come from the whole dose curve; as a rule, active = well fitted inhibition curve with a large enough effect; inconclusive = small, poorly fitted or top-dose-only effect; inactive = flat fitted curve, though single readings scatter.
One label from this list, please: 1 for active, 0 for inactive

Tell me the recorded outcome of this test for "CC[C@H](c1ccc(O)cc1)[C@@H](CC)c1ccc(O)cc1" .
0

Tell me the recorded outcome of this test for "O=C(O)CCNC(=O)c1ccccc1" .
0

Tell me the recorded outcome of this test for "C#C[C@]1(O)CC[C@H]2[C@@H]3CCC4=Cc5oncc5C[C@]4(C)[C@H]3CC[C@@]21C" .
0

Tell me the recorded outcome of this test for "CC(=O)Nc1ncc([N+](=O)[O-])s1" .
0

Tell me the recorded outcome of this test for CCC(C(=O)OCCOCCN(CC)CC)c1ccccc1 (centres undefined) .
0

Tell me the recorded outcome of this test for CC(=O)Nc1ccc(OCC(O)CNC(C)C)cc1 (centres undefined) .
0

Tell me the recorded outcome of this test for "O=C(O)c1ccc(S(=O)(=O)N(Cl)Cl)cc1" .
0

Tell me the recorded outcome of this test for "CCCN(CCC)S(=O)(=O)c1ccc(C(=O)O)cc1" .
0

Tell me the recorded outcome of this test for "CO[C@]12C[C@@H](COC(=O)c3cncc(Br)c3)CN(C)[C@@H]1Cc1cn(C)c3cccc2c13" .
0

Tell me the recorded outcome of this test for "C#C[C@]1(OC(C)=O)CC[C@H]2[C@@H]3CCC4=C/C(=N/O)CC[C@@H]4[C@H]3CC[C@@]21CC" .
0

Tell me the recorded outcome of this test for "CCCN(CCc1cccs1)[C@H]1CCc2c(O)cccc2C1" .
1

Tell me the recorded outcome of this test for "Oc1ccccc1C=NCc1ccccc1" .
0

Tell me the recorded outcome of this test for "CCCCCCCC/C=C\CCCCCCCCN" .
0

Tell me the recorded outcome of this test for "OCCOCCN1CCN(C2=Nc3ccccc3Sc3ccccc32)CC1" .
0

Tell me the recorded outcome of this test for "CCCCNc1ccc(C(=O)OCCOCCOCCOCCOCCOCCOCCOCCOCCOC)cc1" .
0

Tell me the recorded outcome of this test for "Cc1ccc(S(=O)(=O)NC(=O)NC2CCCC2)cc1" .
0

Tell me the recorded outcome of this test for "CCN(CC)CCNC(=O)c1cc(Br)c(N)cc1OC" .
0

Tell me the recorded outcome of this test for "CN1CCc2cccc3c2[C@H]1Cc1ccc(O)c(O)c1-3" .
1

Tell me the recorded outcome of this test for "COc1cc([C@H]2Oc3cc([C@H]4Oc5cc(O)cc(O)c5C(=O)[C@@H]4O)ccc3O[C@@H]2CO)ccc1O" .
0

Tell me the recorded outcome of this test for "CCN(CC)CCNC(=O)COc1ccc(OC)cc1" .
0

Tell me the recorded outcome of this test for "O=C(NC1CCN(CCc2c[nH]c3ccccc23)CC1)c1ccccc1" .
0

Tell me the recorded outcome of this test for "CCOC(=O)c1c(N)sc2c1CCN(Cc1ccccc1)C2" .
1

Tell me the recorded outcome of this test for "CCNC(=O)NCc1cccc(Cl)c1" .
0

Tell me the recorded outcome of this test for "CCc1oc2ccccc2c1C(=O)c1cc(Br)c(O)c(Br)c1" .
0

* * *

# Tested on: MKL-1
# assay name: qHTS assay to identify novel small-molecules to repurpose for Merkel cell carcinoma treatment (AID 1296009); note: nearly all actives have a fitted effect of over 60% in size
# condition info: MCC and control cell lines, CellTiter-Glo viability, 72 h; series mostly up to 46 µM
Results filed as inconclusive are left out. Calls of active or inactive are those of the source. Calls come from the whole dose curve; as a rule, active = well fitted inhibition curve with a large enough effect; inconclusive = small, poorly fitted or top-dose-only effect; inactive = flat fitted curve, though single readings scatter.
One label from this list, please: active, inactive

Tell me the recorded outcome of this test for "OC[C@H]1O[C@@H](Oc2ccc(O)cc2)[C@H](O)[C@@H](O)[C@@H]1O" .
inactive

Tell me the recorded outcome of this test for "N#CCC(=O)NN" .
inactive

Tell me the recorded outcome of this test for "CCN1/C(=C/C=C/c2sc3ccccc3[n+]2CC)Sc2ccccc21" .
active

Tell me the recorded outcome of this test for "Nc1nc(-c2ccccc2)c(Br)c(=O)[nH]1" .
inactive

Tell me the recorded outcome of this test for "O=C(Nc1cccc(C2=NCCN2)c1)Nc1cccc(C2=NCCN2)c1" .
inactive

Tell me the recorded outcome of this test for "COc1ccc(CN(CCN(C)C)c2ncccn2)cc1" .
inactive

* * *

# Tested on: CP191
# assay name: qHTS profiling for inhibitors of Plasmodium falciparum proliferation (AID 504749); note: nearly all actives have a fitted effect of over 60% in size
# condition info: P. falciparum in erythrocytes, SYBR Green DNA, 72 h; series mostly up to 28.7 µM
Records with an inconclusive call do not appear. Active and inactive are the calls of the source. Calls come from the whole dose curve; as a rule, active = well fitted inhibition curve with a large enough effect; inconclusive = small, poorly fitted or top-dose-only effect; inactive = flat fitted curve, though single readings scatter.
One label from this list, please: 1 = active, -1 = inactive

Tell me the recorded outcome of this test for "CC[C@H](c1ccc(O)cc1)[C@@H](CC)c1ccc(O)cc1" .
-1

Tell me the recorded outcome of this test for "O=C(NC1CCN(CCc2c[nH]c3ccccc23)CC1)c1ccccc1" .
1

Tell me the recorded outcome of this test for "NCc1ccccc1Sc1ccccc1CO" .
-1

Tell me the recorded outcome of this test for "CC(=O)Nc1ncc([N+](=O)[O-])s1" .
-1

Tell me the recorded outcome of this test for "CC(=O)Oc1ccc(C)cc1" .
-1

Tell me the recorded outcome of this test for "CCc1oc2ccccc2c1C(=O)c1cc(Br)c(O)c(Br)c1" .
-1

Tell me the recorded outcome of this test for "CCCN(CCc1cccs1)[C@H]1CCc2c(O)cccc2C1" .
1

Tell me the recorded outcome of this test for "CC(=O)NC(=O)c1ccccc1O" .
-1

Tell me the recorded outcome of this test for "NS(=O)(=O)c1cc(C(=O)O)cc(N2CCCC2)c1Oc1ccccc1" .
-1

Tell me the recorded outcome of this test for "CCc1oc2ccccc2c1C(=O)c1cc(I)c(O)c(I)c1" .
-1

Tell me the recorded outcome of this test for "COc1ccc(/C=N/NC(=O)c2ccncc2)cc1OC" .
-1

Tell me the recorded outcome of this test for "O=C(O)CCC(=O)Nc1ccc(S(=O)(=O)Nc2nccs2)cc1" .
-1

Tell me the recorded outcome of this test for "c1ccc(CC2=NCCN2)cc1" .
-1

Tell me the recorded outcome of this test for "O=S(c1cc(Cl)cc(Cl)c1O)c1cc(Cl)cc(Cl)c1O" .
1

Tell me the recorded outcome of this test for "CCNC(=O)NCc1cccc(Cl)c1" .
-1

Tell me the recorded outcome of this test for "CCOc1cc(OCC)c(C(=O)CCC(=O)O)cc1OCC" .
-1

Tell me the recorded outcome of this test for "CCCCCCCCCCCCSCCOCCO" .
-1

Tell me the recorded outcome of this test for CC(C)NCC(O)c1ccc2ccccc2c1 (stereo not given) .
1

Tell me the recorded outcome of this test for O=C1C(=O)c2ccccc2C(O)=C1C1CCC(c2ccc(Cl)cc2)CC1 (stereo not given) .
1

Tell me the recorded outcome of this test for "CCCc1ncc(C[n+]2ccccc2C)c(N)n1" .
-1

Tell me the recorded outcome of this test for "Cc1cc(-c2ccccc2)nnc1NCCN1CCOCC1" .
-1

Tell me the recorded outcome of this test for "C/C=C/C=N/NC(=O)c1ccncc1" .
-1

Tell me the recorded outcome of this test for "CC1=C(C(=O)O)N2C(=O)[C@@H](NC(=O)[C@H](N)c3ccccc3)[C@H]2SC1" .
-1

Tell me the recorded outcome of this test for "NCCNC(=O)c1ccc(Cl)cn1" .
-1

Tell me the recorded outcome of this test for "Cc1ccc(S(=O)(=O)NC(=O)NC2CCCC2)cc1" .
-1

Tell me the recorded outcome of this test for "O=C(O)Cc1csc(-c2ccc(Cl)cc2)n1" .
-1

Tell me the recorded outcome of this test for "NC(=S)N/N=C/c1cccnc1" .
-1

Tell me the recorded outcome of this test for "CC(C)(C)NC[C@H](O)COc1cccc2c1CCCC2=O" .
-1

Tell me the recorded outcome of this test for "OC[C@H]1O[C@@H]2O[C@H]3[C@H](O)[C@@H](O)[C@@H](O[C@H]4[C@H](O)[C@@H](O)[C@@H](O[C@H]5[C@H](O)[C@@H](O)[C@@H](O[C@H]6[C@H](O)[C@@H](O)[C@@H](O[C@H]7[C@H](O)[C@@H](O)[C@@H](O[C@H]8[C@H](O)[C@@H](O)[C@@H](O[C@H]1[C@H](O)[C@H]2O)O[C@@H]8CO)O[C@@H]7CO)O[C@@H]6CO)O[C@@H]5CO)O[C@@H]4CO)O[C@@H]3CO" .
-1

Tell me the recorded outcome of this test for "O=C(Nc1cccc(C2=NCCN2)c1)Nc1cccc(C2=NCCN2)c1" .
1

Tell me the recorded outcome of this test for "Cc1c(-c2ccccc2)oc2c(C(=O)OCCN3CCCCC3)cccc2c1=O" .
-1

Tell me the recorded outcome of this test for "Cc1c[nH]c2ccccc12" .
-1

Tell me the recorded outcome of this test for "CCCCCCCCCCCCCC(=O)OC(C)C" .
-1

Tell me the recorded outcome of this test for "C#C[C@]1(OC(C)=O)CC[C@H]2[C@@H]3CCC4=C/C(=N/O)CC[C@@H]4[C@H]3CC[C@@]21CC" .
-1

Tell me the recorded outcome of this test for "NC(=O)n1c(O)c(C(=O)c2cccs2)c2cc(Cl)ccc21" .
-1
